procedure_details: self-splicing fitness, log relative to wild type (ln ratio); higher = more splicing; Tetrahymena group I intron in knt gene, E. coli kanamycin selection, DiMSum; sequences stand for … in CUCUCU…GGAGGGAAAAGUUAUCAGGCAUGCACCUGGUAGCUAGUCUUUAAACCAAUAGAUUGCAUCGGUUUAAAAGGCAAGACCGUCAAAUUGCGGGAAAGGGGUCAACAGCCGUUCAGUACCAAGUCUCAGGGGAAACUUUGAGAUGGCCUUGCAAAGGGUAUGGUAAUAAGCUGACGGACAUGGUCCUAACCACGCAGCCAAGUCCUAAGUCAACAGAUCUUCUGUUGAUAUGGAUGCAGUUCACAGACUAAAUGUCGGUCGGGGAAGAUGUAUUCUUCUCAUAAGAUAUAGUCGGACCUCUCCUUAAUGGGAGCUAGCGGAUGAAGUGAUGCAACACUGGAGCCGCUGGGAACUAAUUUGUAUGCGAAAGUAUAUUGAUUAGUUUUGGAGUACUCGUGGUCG;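 also: selection with 25 µg/mL kanamycin versus none on LB agar overnight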
measurement_conditions: 30 °C
# binarize self-splicing fitness (ln): threshold -2 inclusive, high side Yes, low side No

Exam item: Confirm if self-splicing fitness (ln) reported for the sequence `CCGGAGCAAUAUUACGUAGU` is -2 or above.
Marked response: No

Exam item: Confirm if self-splicing fitness (ln) reported for the sequence `CAGCAGCAAUAUUACGGGCG` is -2 or above.
Marked response: Yes

Exam item: Confirm if self-splicing fitness (ln) reported for the sequence `GAACAGCAAUAUUACGCCAA` is -2 or above.
Marked response: Yes

Exam item: Confirm if self-splicing fitness (ln) reported for the sequence `UAAGAGCAAUAUUACGGUAA` is -2 or above.
Marked response: No

Exam item: Confirm if self-splicing fitness (ln) reported for the sequence `CUGAAGCAAUAUUACGAAGA` is -2 or above.
Marked response: No

Exam item: Confirm if self-splicing fitness (ln) reported for the sequence `AGUUAGCAAUAUUACGCGCG` is -2 or above.
Marked response: Yes

Exam item: Confirm if self-splicing fitness (ln) reported for the sequence `UCAUAGCAAUAUUACGGAAU` is -2 or above.
Marked response: No

Exam item: Confirm if self-splicing fitness (ln) reported for the sequence `CUGGAGCAAUAUUACGUAAG` is -2 or above.
Marked response: Yes

Exam item: Confirm if self-splicing fitness (ln) reported for the sequence `GCCUAGCAAUAUUACGUGCC` is -2 or above.
Marked response: No

Exam item: Confirm if self-splicing fitness (ln) reported for the sequence `GAAUAGCAAUAUUACGCAAU` is -2 or above.
Marked response: No

Exam item: Confirm if self-splicing fitness (ln) reported for the sequence `UAGCAGCAAUAUUACGUCCA` is -2 or above.
Marked response: Yes

Exam item: Confirm if self-splicing fitness (ln) reported for the sequence `GCUUAGCAAUAUUACGGCAA` is -2 or above.
Marked response: No

Exam item: Confirm if self-splicing fitness (ln) reported for the sequence `UGGAAGCAAUAUUACGGUAA` is -2 or above.
Marked response: Yes

Exam item: Confirm if self-splicing fitness (ln) reported for the sequence `GAAAAGCAAUAUUACGCUAA` is -2 or above.
Marked response: No

Exam item: Confirm if self-splicing fitness (ln) reported for the sequence `CGCCAGCAAUAUUACGAUUA` is -2 or above.
Marked response: No

Entry source: the supplement of paper PMC7877785
